Quick reference for melting point among some molecules

(Q) Find the recorded melting point belonging to C=CC(=O)Nc1c(C)cccc1C and report it.
(A) 144 to 145 °C

---
(Q) Find the recorded melting point belonging to CSc1sc(C(=O)N2CCOCC2)c2c1-c1oncc1C(C)(C)C2 and report it.
(A) 175 to 177 °C

(Q) What about CC1(C)C2CC[C@]1(C)C(=O)C(C(=O)Nc1cccc(C(F)(F)F)c1)C2=O (some centres undefined) ?
(A) 60 to 62 °C

(Q) What about COc1ccc2nc(N3CCNCC3)cc(C(F)(F)F)c2c1 ?
(A) 130 °C

* * *

experimental-readout: melting point

Examples from the recorded data:
(Q) Find the recorded melting point belonging to COc1ccc(CN2C(=O)C(C)(c3cc(CN4CCCCC4=O)ccc3Cl)c3cc(Cl)ccc32)c(OC)c1 (stereo not drawn) and report it.
(A) 72 °C

(Q) What about O=C(O)c1cccc(-c2ccc(Cl)c3cc(Cc4ccc(F)c(F)c4)sc23)c1 ?
(A) 214 to 215 °C

(Q) What about NS(=O)(=O)c1ccc(-c2cccc(-c3nc(-c4ccc(C(F)(F)F)c(F)c4)cc(C(F)(F)F)n3)c2)s1 ?
(A) 214 °C

(Q) What about CC(/C=C/C(Br)=C(/C)c1ccc2c(c1)C(C)(C)CCC2(C)C)=C\C(=O)O ?
(A) 189 to 190 °C

(Q) What about COc1ccc(C(CC(=O)Nc2ncccc2C)N2C(=O)c3ccccc3C2=O)cc1OC (stereo not drawn) ?
(A) 171 to 172 °C

---
(Q) Find the recorded melting point belonging to Cc1csc2nc(-c3ccc(C(=O)O)cc3)nc(Cc3ccc4c(c3)OCO4)c12 and report it.
(A) 250 °C

(Q) What about CCCc1c(C(C)C)nc(C(C)C)c(C(C)O)c1-c1ccc(F)cc1 (stereo not drawn) ?
(A) 103 to 104 °C

(Q) What about COc1cc(OC)cc(-c2nc[nH]c2-c2ccc(OC)c(O)c2F)c1 ?
(A) 126 to 128 °C

(Q) What about Cc1nn(C)c(-c2ccc(F)cc2)c1C=O ?
(A) 130 to 131 °C

(Q) What about O=C1C(=O)c2ccccc2C2=C1SCC1(CCN(CC(O)COc3ccc4cc(Br)ccc4c3)CC1)O2 (stereo not drawn) ?
(A) 183 to 184 °C

(Q) What about COC(=O)COc1cc(C(=O)OC)nc2cc(Cl)ccc12 ?
(A) 154 °C

(Q) What about N=C(N)NCCCCOc1ccc2c(c1)CC(CC(=O)O)C(=O)N2 (stereo not drawn) ?
(A) 170 to 173 °C

(Q) What about CCCCSc1ccc(C2CC(=O)C(C(=O)CC)=C(O)C2)cc1[N+](=O)[O-] (stereo not drawn) ?
(A) 102 °C
